Listing: melting point of selected compounds

Some entries whose results are on file:
compound | property-measured | recorded-measurement
CC(=S)NC[C@H]1CN(c2ccc(C3CCS(=O)(=O)N(C)C3)c(F)c2)C(=O)O1 (some centres undefined) | melting point | 95 to 98 °C
O=[N+]([O-])c1ccc(S(=O)(=O)Nc2cccc(F)c2)c([N+](=O)[O-])c1 | melting point | 172 to 173 °C
CN(C)CCc1nnc2n1-c1ccc(Cl)cc1C(c1ccccc1)NC2 (centres undefined) | melting point | 131 to 137 °C
CC(C)c1ccc(N(CC(=O)N2CCOCC2)C(=O)C2CCCc3ccccc32)cc1 (centres undefined) | melting point | 180 °C
N#CCCNC(=O)Cc1c(C(=O)c2ccccc2)[nH]c2cc(Cl)ccc12 | melting point | 233 to 234 °C

If you can, please state the reported melting point value of CCOC(=O)C(=CNc1sc(-c2ccc(OC)cc2)c(C)c1C(=O)O)C(=O)OCC . 184 to 187 °C

If you can, please state the reported melting point value of CCC(COCc1cccc(Cl)c1)n1cnc2c(N)nc3ccccc3c21 (centres undefined) . 60 to 62 °C

If you can, please state the reported melting point value of O=C(Nc1ccc(Oc2ccnc(N3CCCC(O)C3)n2)c2ccccc12)c1cc(F)cc(N2CCCCC2)c1 (centres undefined) . 93 to 95 °C

If you can, please state the reported melting point value of CC(C)(C)OC(=O)Nc1cc(OCc2ccccc2)c2ccccc2c1I . 111 to 112 °C

###

property-measured: melting point

Some entries whose results are on file:
compound | melting point
OCCCCCCOc1ccc2ccccc2c1 | 53 to 56 °C
CCOC(=O)c1nc(-c2cccc(Br)c2)ns1 | 87 to 90 °C
C[Si](C)(CCSCCCNC(=O)n1cc(F)c(=O)[nH]c1=O)c1ccccc1 | 93.5 to 94 °C
OCC1OC(n2cnc3c(NCC4(c5cccc(Cl)c5)CCC4)ncnc32)C(O)C1O (stereo not given) | 92 to 98 °C

If you can, please state the reported melting point value of CC1(C)Cc2c(N)c(Cl)cc(C(=O)NCCC34CCCN3CCC4)c2O1 . 189 to 191 °C

###

Listing: melting point of selected compounds

If you can, please state the reported melting point value of COC(=O)c1cccc(C(=O)Nc2cccc3cc(Br)cnc23)c1 . 157 °C

If you can, please state the reported melting point value of CCOC(=O)COC1CC(C)(C)N(O)C(C)(C)C1 . 41 to 43 °C

If you can, please state the reported melting point value of CN1C(=O)C(C)(C)N=C(c2ccccc2F)c2cc(N)ccc21 . 190 to 191 °C

If you can, please state the reported melting point value of Cc1nc(NC(CO)C(C)SCc2ccccc2)c2nc(-c3ccccc3)cc-2[nH]1 (centres undefined) . 220 to 222 °C

If you can, please state the reported melting point value of COC(=O)c1ccc(OCCCCCCc2ccc3cc(OCc4ccccc4)c(OCc4ccccc4)cc3c2)cc1O . 129 to 131 °C

If you can, please state the reported melting point value of C[C@]1(CN2CCN(NCc3ccc(C(F)(F)F)cc3)CC2)Cn2cc([N+](=O)[O-])nc2O1 . 131 to 136 °C

If you can, please state the reported melting point value of COc1cc(Cc2cnc(N)nc2N)cc2c1OC(C)(C)C=C2C#CCO . 236 to 237 °C

If you can, please state the reported melting point value of CC(=O)OCc1c(Br)cccc1N1CCn2c(nc3c2CCCC3)C1=O . 205 to 206 °C

If you can, please state the reported melting point value of CCOC(=O)c1ccc(C#Cc2ccc3c(c2)C(C)(C)CCC3(C)C)cc1 . 137 to 138 °C
